Source of measurements: patent US8110703B2

test system: NB4 cells; assay: Cell cycle analysis by flow cytometer, NB4; format: cell-based; conditions: 72 h
ASSAY ENDPOINT: G1 % (%)
Expressed in %, but write only the number.

Query string: Endpoint output: G1 % of CC1=C(/C=C/C(C)=C/C=C/C(C)=C/C(=O)Nc2ccc(OC(F)(F)F)cc2)C(C)(C)CCC1 . Value?
Result string: 38.24

Query string: Item CC1=C(/C=C/C(C)=C/C=C/C(C)=C/C(=O)Oc2cccc(OC(F)(F)F)c2)C(C)(C)CCC1 has what recorded G1 %?
Result string: 60.06

Query string: Entry CC1=C(/C=C/C(C)=C/C=C/C(C)=C/C(=O)Nc2cccc(OC(F)(F)F)c2)C(C)(C)CCC1 has what G1 %?
Result string: 75.47

Query string: Need G1 %, item CC1=C(/C=C/C(C)=C/C=C/C(C)=C/C(=O)Oc2ccccc2C(F)(F)F)C(C)(C)CCC1
Result string: 65.72

Query string: Which G1 % reading was recorded for the compound CC1=C(/C=C/C(C)=C/C=C/C(C)=C/C(=O)Oc2ccc(OC(F)(F)F)cc2)C(C)(C)CCC1 ?
Result string: 59.28

Query string: For CC1=C(/C=C/C(C)=C/C=C/C(C)=C/C(=O)Oc2ccc(N)cc2C(F)(F)F)C(C)(C)CCC1 , what is its reported G1 %?
Result string: 52.59

Query string: Reported G1 %, compound CC1=C(/C=C/C(C)=C/C=C/C(C)=C/C(=O)Nc2ccc(O)cc2)C(C)(C)CCC1 [Fenretinide, reference compound] : ____
Result string: 63.25

Query string: Recorded G1 % of CC1=C(/C=C/C(C)=C/C=C/C(C)=C/C(=O)Nc2cccc(C(F)(F)F)c2)C(C)(C)CCC1 , please.
Result string: 45.83

Query string: Entry under review: CC1=C(/C=C/C(C)=C/C=C/C(C)=C/C(=O)Oc2ccc(N)c(C(F)(F)F)c2)C(C)(C)CCC1 . Reported G1 %?
Result string: 59.15
